measurement target: Adenosine A2a receptor (Homo sapiens, UniProt P29274)
Construct: expressed in transfected cells; host or cells: CHO cell membranes
Sequence (P29274 whole entry): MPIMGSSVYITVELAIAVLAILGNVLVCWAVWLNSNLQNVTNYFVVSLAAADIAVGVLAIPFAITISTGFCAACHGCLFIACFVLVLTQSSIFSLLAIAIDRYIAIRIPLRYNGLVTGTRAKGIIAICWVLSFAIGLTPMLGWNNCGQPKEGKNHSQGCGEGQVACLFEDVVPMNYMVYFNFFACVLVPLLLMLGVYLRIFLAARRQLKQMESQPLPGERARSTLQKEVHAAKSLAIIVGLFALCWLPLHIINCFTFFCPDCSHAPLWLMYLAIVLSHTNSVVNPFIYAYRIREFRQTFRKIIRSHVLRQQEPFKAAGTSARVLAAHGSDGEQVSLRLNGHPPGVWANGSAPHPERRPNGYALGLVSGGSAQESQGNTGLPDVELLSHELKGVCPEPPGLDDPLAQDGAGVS
assay overview: Adenosine receptor TR-FRET binding assay, A2a
test parameters: Table 8; displacement of 100 nM CA200645, CHO cell membranes, Cheng and Prusoff
pKi: −log10 of the molar value.
Record YES whenever pKi is at 7 or higher; record NO when lower.

| compound | assigned class |
| --- | --- |
| Cc1ccc(CNC(=O)c2cnc(-c3cccc(F)c3)nc2N)cc1 [Example 10] | NO |

Turning to the following compound.
Q. Given Nc1nc(-c2cccc(F)c2)ncc1C(=O)NCc1cccc(Cl)c1 [Example 10.2] , state whether its pKi is at least 7.
A. NO
